system: Human immunodeficiency virus 1; assay: microbe, parasite or virus in culture; settings: Human immunodeficiency virus 1, IIIB, MT4, 120 h
Description: Antiviral activity against wild type HIV-1 IIIB infected in human MT4 cells assessed as protection against virus-induced cytopathic effect incubated for 5 days by MTT assay
reported-property: EC50

[[record]]
smiles_structure = "COc1cccc(C(=O)N2CCc3nc(Nc4ccc(C#N)cc4)nc(Oc4c(C)cc(C#N)cc4C)c3C2)c1"
reported_property = "EC50"
experimental_result = "7.32 nM"

[[record]]
smiles_structure = "Cc1cc(C#N)cc(C)c1Oc1nc(Nc2ccc(C#N)cc2)nc2c1CN(Cc1ccc(S(N)(=O)=O)cc1)CC2"
reported_property = "EC50"
experimental_result = "6.62 nM"

[[record]]
smiles_structure = "Cc1cc(C#N)cc(C)c1Oc1nc(Nc2ccc(C#N)cc2)nc2c1CN(C(=O)c1cccc(C#N)c1)CC2"
reported_property = "EC50"
experimental_result = "7.77 nM"

[[record]]
smiles_structure = "Cc1cc(C#N)cc(C)c1Oc1nc(Nc2ccc(C#N)cc2)nc2c1CN(C(=O)c1cccc([N+](=O)[O-])c1)CC2"
reported_property = "EC50"
experimental_result = "8 nM"

[[record]]
smiles_structure = "COC(=O)c1ccc(C(=O)N2CCc3nc(Nc4ccc(C#N)cc4)nc(Oc4c(C)cc(C#N)cc4C)c3C2)cc1"
reported_property = "EC50"
experimental_result = "21.1 nM"

[[record]]
smiles_structure = "Cc1cc(C#N)cc(C)c1Oc1nc(Nc2ccc(C#N)cc2)nc2c1CN(C(=O)c1ccc(C(F)(F)F)cc1)CC2"
reported_property = "EC50"
experimental_result = "28.8 nM"

[[record]]
smiles_structure = "Cc1cc(C#N)cc(C)c1Oc1nc(Nc2ccc(C#N)cc2)nc2c1CN(C(=O)c1cccc(C(F)(F)F)c1)CC2"
reported_property = "EC50"
experimental_result = "27.7 nM"

[[record]]
smiles_structure = "C=CC(=O)N1CCc2nc(Nc3ccc(C#N)cc3)nc(Oc3c(C)cc(C#N)cc3C)c2C1"
reported_property = "EC50"
experimental_result = "8.12 nM"

[[record]]
smiles_structure = "Cc1cc(C#N)cc(C)c1Oc1nc(Nc2ccc(C#N)cc2)nc2c1CN(Cc1ccc(B(O)O)cc1)CC2"
reported_property = "EC50"
experimental_result = "14.9 nM"


* * *

system: Human immunodeficiency virus 1; test: Antiviral activity against NNRTI-resistant HIV-1 harboring L100I mutant infected in human MT4 cells assessed as protection against virus-induced cytopathic effect incubated for 5 days by MTT assay; format: functional, organism-based; details: Human immunodeficiency virus 1, MT4, 120 h
pEC50: −log10 of the molar value.
Rule: pEC50 under 7 gives f, otherwise t.

[[record]]
compound = "CCC(=O)N1CCc2nc(Nc3ccc(C#N)cc3)nc(Oc3c(C)cc(C#N)cc3C)c2C1"
assigned_category = "t"

[[record]]
compound = "Cc1cc(C#N)cc(C)c1Oc1nc(Nc2ccc(C#N)cc2)nc2c1CNCC2"
assigned_category = "t"

[[record]]
compound = "Cc1ccnc2c1NC(=O)c1cccnc1N2C1CC1 [NEVIRAPINE]"
assigned_category = "f"

[[record]]
compound = "C=CC(=O)N1CCc2nc(Nc3ccc(C#N)cc3)nc(Oc3c(C)cc(C#N)cc3C)c2C1"
assigned_category = "t"

[[record]]
compound = "O=C1Nc2ccc(Cl)cc2[C@@](C#CC2CC2)(C(F)(F)F)O1 [EFAVIRENZ]"
assigned_category = "f"


* * *

system: Human immunodeficiency virus 1; assay: microbe, parasite or virus in culture; conditions: Human immunodeficiency virus 1, IIIB, MT4, 120 h
Label key: true (1) means EC50 under 9 nM; false (0) means EC50 of 9 nM or more.

[[record]]
molecule = "Cc1ccnc2c1NC(=O)c1cccnc1N2C1CC1 [NEVIRAPINE]"
assigned_category = "false (0)"

[[record]]
molecule = "Cc1cc(C#N)cc(C)c1Oc1nc(Nc2ccc(C#N)cc2)nc2c1CNCC2"
assigned_category = "true (1)"

[[record]]
molecule = "Cc1cc(C#N)cc(C)c1Oc1nc(Nc2ccc(C#N)cc2)nc2c1CN(C(=O)c1ccc(C#N)cc1)CC2"
assigned_category = "false (0)"

[[record]]
molecule = "Cc1cc(C#N)cc(C)c1Oc1nc(Nc2ccc(C#N)cc2)nc2c1CN(Cc1ccc(C(N)=O)cc1)CC2"
assigned_category = "true (1)"

[[record]]
molecule = "Cc1cc(C#N)cc(C)c1Oc1nc(Nc2ccc(C#N)cc2)nc2c1CN(Cc1ccccc1)CC2"
assigned_category = "false (0)"

[[record]]
molecule = "Cc1cc(C#N)cc(C)c1Oc1nc(Nc2ccc(C#N)cc2)nc2c1CN(Cc1ccc(S(C)(=O)=O)cc1)CC2"
assigned_category = "true (1)"

[[record]]
molecule = "CCC(=O)N1CCc2nc(Nc3ccc(C#N)cc3)nc(Oc3c(C)cc(C#N)cc3C)c2C1"
assigned_category = "true (1)"


* * *

target: hERG (Homo sapiens); test: Inhibition of hERG expressed in CHO cells at 0.1 uM at -80 mV holding potential by manual patch-clamp electrophysiology method relative to control; type: toxicity, cell-based; settings: CHO cells expressing hERG
Sequence (Q12809 whole entry): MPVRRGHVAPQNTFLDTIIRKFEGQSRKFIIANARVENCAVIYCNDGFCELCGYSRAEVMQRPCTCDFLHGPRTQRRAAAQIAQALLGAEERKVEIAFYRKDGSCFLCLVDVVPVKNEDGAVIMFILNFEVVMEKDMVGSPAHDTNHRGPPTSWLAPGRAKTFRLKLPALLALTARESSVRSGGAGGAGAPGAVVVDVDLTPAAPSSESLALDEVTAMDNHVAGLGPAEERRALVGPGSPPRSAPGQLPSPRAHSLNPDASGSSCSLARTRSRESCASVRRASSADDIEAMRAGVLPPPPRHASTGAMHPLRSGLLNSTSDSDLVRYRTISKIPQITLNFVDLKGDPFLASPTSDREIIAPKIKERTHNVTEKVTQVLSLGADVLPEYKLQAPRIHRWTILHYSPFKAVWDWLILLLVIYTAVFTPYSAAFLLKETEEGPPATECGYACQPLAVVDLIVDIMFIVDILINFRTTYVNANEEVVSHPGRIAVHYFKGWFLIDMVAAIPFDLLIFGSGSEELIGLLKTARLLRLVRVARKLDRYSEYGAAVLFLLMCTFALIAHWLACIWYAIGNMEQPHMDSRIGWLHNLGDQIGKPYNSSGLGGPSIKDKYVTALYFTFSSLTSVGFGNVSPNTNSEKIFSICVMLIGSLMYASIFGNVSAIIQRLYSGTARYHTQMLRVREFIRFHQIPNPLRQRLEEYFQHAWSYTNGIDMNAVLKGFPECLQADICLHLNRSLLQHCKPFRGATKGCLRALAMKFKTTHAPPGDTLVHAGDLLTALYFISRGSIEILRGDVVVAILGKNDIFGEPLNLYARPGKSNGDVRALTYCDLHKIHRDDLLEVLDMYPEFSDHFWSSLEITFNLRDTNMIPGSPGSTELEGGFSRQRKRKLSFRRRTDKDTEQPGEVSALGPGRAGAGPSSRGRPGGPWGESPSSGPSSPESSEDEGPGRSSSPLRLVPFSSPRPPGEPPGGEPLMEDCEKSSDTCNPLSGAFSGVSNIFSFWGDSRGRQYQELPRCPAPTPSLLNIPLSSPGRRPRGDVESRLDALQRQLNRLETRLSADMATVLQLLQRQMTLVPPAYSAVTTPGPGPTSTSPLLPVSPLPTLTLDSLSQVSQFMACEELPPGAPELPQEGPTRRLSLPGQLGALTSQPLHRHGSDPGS
reported-property: inhibition at 0.1 µM

[[record]]
molecule = "COc1cc(N)c(Cl)cc1C(=O)NC1CCN(CCCOc2ccc(F)cc2)CC1OC (stereo unspecified) [CISAPRIDE]"
experimental_result = "64%"


* * *

test: Water solubility of the compound in phosphate buffer at pH 7.0
reported-property: solubility

[[record]]
smiles_structure = "Cc1cc(C#N)cc(C)c1Oc1nc(Nc2ccc(C#N)cc2)nc(N)c1Br"
experimental_result = "< 1 µg/mL"


* * *

experiment: Metabolic stability in human liver microsomes assessed as compound remaining measured after 60 mins in the presence of NADPH by LC-MS/MS analysis; type: ADME, Microsome; conditions: liver microsomes, read-out: Stability
reported-property: remaining at 1 h (%)

[[record]]
smiles_structure = "CCC(=O)N1CCc2nc(Nc3ccc(C#N)cc3)nc(Oc3c(C)cc(C#N)cc3C)c2C1"
units_text = "%"
experimental_result = 1.6

[[record]]
smiles_structure = "Cc1cc(C#N)cc(C)c1Oc1nc(Nc2ccc(C#N)cc2)nc(N)c1Br"
units_text = "%"
experimental_result = 50.2


* * *

test: in vitro; conditions: human, MT4 cells
Description: Selectivity index, ratio of CC50 for cytotoxicity against human MT4 cells to EC50 for antiviral activity against NNRTI-resistant HIV-1 harboring K103N mutant infected in human MT4 cells
Label key: met means selectivity ratio under 6000; not met means selectivity ratio of 6000 or more.

[[record]]
smiles_structure = "Cc1cc(C#N)cc(C)c1Oc1nc(Nc2ccc(C#N)cc2)nc2c1CN(S(=O)(=O)N(C)C)CC2"
assigned_category = "not met"

[[record]]
smiles_structure = "Cc1cc(C#N)cc(C)c1Oc1nc(Nc2ccc(C#N)cc2)nc2c1CN(Cc1ccc(B(O)O)cc1)CC2"
assigned_category = "met"

[[record]]
smiles_structure = "Cc1cc(C#N)cc(C)c1Oc1nc(Nc2ccc(C#N)cc2)nc2c1CNCC2"
assigned_category = "not met"

[[record]]
smiles_structure = "COc1cccc(C(=O)N2CCc3nc(Nc4ccc(C#N)cc4)nc(Oc4c(C)cc(C#N)cc4C)c3C2)c1"
assigned_category = "met"

[[record]]
smiles_structure = "Cc1cc(C#N)cc(C)c1Oc1nc(Nc2ccc(C#N)cc2)nc2c1CN(C(=O)c1cccc([N+](=O)[O-])c1)CC2"
assigned_category = "not met"

[[record]]
smiles_structure = "Cc1cc(C#N)cc(C)c1Oc1nc(Nc2ccc(C#N)cc2)nc2c1CN(Cc1ccc(S(N)(=O)=O)cc1)CC2"
assigned_category = "not met"

[[record]]
smiles_structure = "Cc1cc(C#N)cc(C)c1Oc1nc(Nc2ccc(C#N)cc2)nc2c1CN(C(=O)c1cccc(F)c1)CC2"
assigned_category = "met"


* * *

tested on: Human immunodeficiency virus 1; assay: microbe, parasite or virus in culture; settings: Human immunodeficiency virus 1, IIIB, MT4, 120 h
EC50 by entry:
reported-property: EC50 (nM)

[[record]]
smiles_structure = "Cc1ccc(C(=O)N2CCc3nc(Nc4ccc(C#N)cc4)nc(Oc4c(C)cc(C#N)cc4C)c3C2)cc1"
reported_property = "EC50"
experimental_result = 7.08

[[record]]
smiles_structure = "Cc1cc(C#N)cc(C)c1Oc1nc(Nc2ccc(C#N)cc2)nc2c1CN(S(=O)(=O)N(C)C)CC2"
reported_property = "EC50"
experimental_result = 7.94

[[record]]
smiles_structure = "Cc1cc(C#N)cc(C)c1Oc1nc(Nc2ccc(C#N)cc2)nc2c1CN(C(=O)c1ccc([N+](=O)[O-])cc1)CC2"
reported_property = "EC50"
experimental_result = 7.65

[[record]]
smiles_structure = "COc1ccc(C(=O)N2CCc3nc(Nc4ccc(C#N)cc4)nc(Oc4c(C)cc(C#N)cc4C)c3C2)cc1"
reported_property = "EC50"
experimental_result = 6.76


* * *

assay: MRT (0 to last) in Sprague-Dawley rat at 2 mg/kg, iv measured at 5 to 600 min by LC-MS/MS analysis; type: ADME, organism-based; conditions: in vivo, time 5-600 min
reported-property: MRT last (min)

[[record]]
smiles_structure = "CCC(=O)N1CCc2nc(Nc3ccc(C#N)cc3)nc(Oc3c(C)cc(C#N)cc3C)c2C1"
experimental_result = 38.9

